# procedure-summary: Single dose PK in rats
# Assay type: in vivo
# run-conditions: plasma; rat, iv bolus, 2 mg/kg; read-out: Vdss
quantity-name: Vd
The answer should read as a number with its unit following.

Fill in the blank: the reported Vd of O=C(OCc1ccc(OC(F)(F)F)cc1)N1C[C@@H]2CN(C(=O)c3ccc4[nH]nnc4c3)C[C@H]2C1 is ____.
0.3 L/kg

====

# assay-target: plasma ATX (Rattus norvegicus, UniProt Q64610)
# procedure-summary: in vivo
quantity-name: IC50

Fill in the blank: the reported IC50 of O=C(OCc1ccc(OC(F)(F)F)cc1)N1C[C@@H]2CN(C(=O)c3ccc4[nH]nnc4c3)C[C@H]2C1 is ____.
~1.47 nM
